From: paper PMC4336329

target: human ether-à-go-go-related gene (hERG) potassium channel (human); experiment: primary screen, population patch clamp on CHO cells stably expressing hERG; higher = less effect of the substance;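 further: peak tail current of the secondary pulse compared with the same well before compound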
Sequence (Q12809 whole entry, looked up): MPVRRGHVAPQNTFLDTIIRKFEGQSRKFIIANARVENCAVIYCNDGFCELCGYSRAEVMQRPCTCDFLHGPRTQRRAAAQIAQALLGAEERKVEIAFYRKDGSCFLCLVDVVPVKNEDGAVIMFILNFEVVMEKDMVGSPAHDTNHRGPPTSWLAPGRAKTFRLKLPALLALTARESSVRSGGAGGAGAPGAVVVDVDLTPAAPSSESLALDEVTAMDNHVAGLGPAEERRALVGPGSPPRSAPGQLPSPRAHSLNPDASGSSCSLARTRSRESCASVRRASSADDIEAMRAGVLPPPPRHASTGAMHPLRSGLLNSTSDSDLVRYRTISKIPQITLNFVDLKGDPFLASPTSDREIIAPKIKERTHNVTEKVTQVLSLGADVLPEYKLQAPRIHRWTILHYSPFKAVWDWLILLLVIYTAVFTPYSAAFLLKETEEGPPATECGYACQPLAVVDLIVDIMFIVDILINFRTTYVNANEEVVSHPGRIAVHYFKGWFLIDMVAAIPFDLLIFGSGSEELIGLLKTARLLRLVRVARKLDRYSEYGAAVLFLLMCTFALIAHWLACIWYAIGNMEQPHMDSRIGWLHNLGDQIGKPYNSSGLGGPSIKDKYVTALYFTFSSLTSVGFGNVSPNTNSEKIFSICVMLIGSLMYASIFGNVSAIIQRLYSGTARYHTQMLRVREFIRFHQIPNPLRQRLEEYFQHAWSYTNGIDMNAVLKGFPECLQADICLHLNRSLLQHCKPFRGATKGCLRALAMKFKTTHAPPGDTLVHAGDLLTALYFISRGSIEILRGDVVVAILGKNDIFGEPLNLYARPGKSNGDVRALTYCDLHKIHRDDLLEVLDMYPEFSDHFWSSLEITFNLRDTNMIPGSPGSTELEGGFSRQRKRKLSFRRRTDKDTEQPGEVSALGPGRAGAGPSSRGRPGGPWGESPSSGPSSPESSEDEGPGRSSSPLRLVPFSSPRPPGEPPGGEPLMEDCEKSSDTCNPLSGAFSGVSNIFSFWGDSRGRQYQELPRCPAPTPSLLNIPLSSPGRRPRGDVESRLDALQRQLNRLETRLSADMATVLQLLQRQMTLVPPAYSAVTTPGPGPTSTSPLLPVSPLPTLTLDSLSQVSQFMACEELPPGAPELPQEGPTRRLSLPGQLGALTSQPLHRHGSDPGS
The campaign covered roughly 310,000 compounds. About 14,000 (4.5%) showed an effect of 50% or more. The effect is printed as a negative number. This is one part of a sample in which strong results are shown more often than they occur.
measured property: hERG current change (%, negative = inhibition) at 10uM (%)

INSERT INTO measurements (structure_notation, unit_text, result) VALUES
  ('Cc1cccc2cc(CN(CCN(C)C)C(=S)Nc3ccccc3)c(=O)[nH]c12', '%', -24),
  ('Cc1ccc(NC(=S)N(CCN(C)C)Cc2cc3cc(C)cc(C)c3[nH]c2=O)cc1', '%', -7.41),
  ('Cc1ccc(NC(=S)N(CCN(C)C)Cc2cc3cc(C)ccc3[nH]c2=O)cc1', '%', -43.5),
  ('Cc1ccc(NC(=S)N(Cc2cccs2)Cc2cc3cccc(C)c3[nH]c2=O)cc1', '%', -9.88),
  ('Cc1ccc(NC(=S)N(CCN(C)C)Cc2cc3cccc(C)c3[nH]c2=O)cc1', '%', -55.6);

----------
hERG current change (%, negative = inhibition) at 10uM for assorted compounds
target: human ether-à-go-go-related gene (hERG) potassium channel (human); assay: primary screen, population patch clamp on CHO cells stably expressing hERG; higher = less effect of the substance;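 further: peak tail current of the secondary pulse compared with the same well before compound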
The campaign covered roughly 310,000 compounds. About 14,000 (4.5%) showed an effect of 50% or more. The effect is printed as a negative number. Shown is part of a subset that was picked to be rich in strong results.
measured property: hERG current change (%, negative = inhibition) at 10uM (%)

INSERT INTO assay_data (compound, result) VALUES
  ('O=C(c1ccc2nc(-c3ccco3)c(-c3ccco3)nc2c1)N1CCN(c2ccccc2)CC1', -15.4),
  ('O=C(c1ccc(-c2ccccc2)cc1)N1CCN(c2ncccn2)CC1', -5.92),
  ('CC(=O)N1CCC(=NNc2ccnc3cc(Cl)ccc23)CC1', -22.2),
  ('CC(=O)c1ccc(N2CCN(C(=O)c3cn(Cc4ccccc4)nc3-c3cccnc3)CC2)c(F)c1', -50.2),
  ('Cc1cc(NC(=O)c2ccc(N3C(=O)C4C5C=CC(C5)C4C3=O)cc2)no1 (centres unmarked)', 8.53),
  ('CC(=O)N1CCN(c2ccnc3cc(Cl)ccc23)CC1', -50.4),
  ('CC(C)(C)C(=O)N1CCN(c2ccnc3cc(Cl)ccc23)CC1', -73.9),
  ('CC(C)(C)c1ccc(NC(=O)COc2ccc(-n3ccnc3)cc2)cc1', -56.5),
  ('CCC(C)(C)c1ccc(OCC(=O)Nc2ccncc2)cc1', -16),
  ('Cc1noc(C)c1S(=O)(=O)Nc1ccc(C(=O)N2CCC(C)CC2)cc1', -4.35),
  ('CC(=O)NCCc1nc2ccccc2n1Cc1ccccc1', 1.05),
  ('CCCCOc1cccc(C(=O)N(Cc2ccccc2)C2CCS(=O)(=O)C2)c1 (centres unmarked)', -14.2),
  ('Cc1ccc(NC(=O)COc2ccc(-n3ccnc3)cc2)cc1Cl', -33.6),
  ('O=C(c1ccc(Cn2cc(Cl)cn2)cc1)N1CCN(c2ccccc2)CC1', -58.4),
  ('O=C(c1cn(Cc2ccccc2)nc1-c1cccnc1)N1CCN(Cc2c(F)cccc2Cl)CC1', -4.33),
  ('Clc1ccc2c(N3CCOCC3)ccnc2c1', -17.1),
  ('NNC(=O)c1ccc(Cn2cc(Br)cn2)cc1', -2.07),
  ('O=C(Cn1cnc2c(cnn2-c2ccccc2Cl)c1=O)N1CCc2ccccc21', -0.441),
  ('CN1C(=O)N(C)C(=O)C2(Cc3cc([N+](=O)[O-])ccc3N3CCN(C(=O)c4ccccc4)CC32)C1=O (centres unmarked)', -65),
  ('O=Cc1cn(Cc2ccccc2)nc1-c1cccnc1', 7.48),
  ('Clc1ncc(CSc2ccccc2)s1', 3.25),
  ('CCC(C)N1CC23C=CC(O2)C(C(=O)OCc2ccccc2)C3C1=O (centres unmarked)', 5.54),
  ('Cc1ccc(NC(=O)CNCc2ccccn2)cc1S(=O)(=O)N(C)C', 20.9),
  ('Cc1cc(N)n2nc(C)c(-c3ccccc3)c2n1', -21.9),
  ('COc1cccc(N2CCN(C(=O)c3cn(Cc4ccccc4)nc3-c3cccnc3)CC2)c1', -12.9),
  ('O=C1NC(=O)C2(Cc3cc([N+](=O)[O-])ccc3N3CCN(C(=O)c4ccccc4)CC32)C(=O)N1 (centres unmarked)', 23),
  ('CC(C)N1CCN(C(=O)c2ccc([N+](=O)[O-])cc2)CC1', -39.8),
  ('Cn1cc(S(=O)(=O)N2CCCC2)cc1C(=O)N1CCN(c2ccccc2)CC1', -35.8),
  ('COCCn1c(SCC(=O)Nc2ccc(Cl)cn2)nc2ccccc21', -32.1),
  ('CN1C(=O)N(C)C(=O)C2(Cc3cc([N+](=O)[O-])ccc3N(C)C2c2ccccc2)C1=O (centres unmarked)', -17.6),
  ('N#CC(=C=[N-])c1nc2ccccc2nc1-[n+]1ccccc1', -2.11),
  ('O=C(O)c1ccccc1Sc1ncnc2sccc12', 9.7),
  ('O=C(c1ccc2nc(-c3ccco3)c(-c3ccco3)nc2c1)N1CCN(c2ncccn2)CC1', -67.8),
  ('O=C(c1ccco1)N1CCN(c2ccc(Cl)cc2)CC1', -40.7),
  ('COc1cc(NC(=O)CC(C)n2ccnc2)cc(OC)c1 (centres unmarked)', 10.7),
  ('CC(C)(C)c1ccc(OCC(=O)Nc2ccncc2)cc1', 8.71),
  ('Cc1cccc(-c2nc3ccccc3c3nncn23)c1', -12.1),
  ('Clc1ccc2c(N3CCCC3)ccnc2c1', -65.2),
  ('Oc1ccc(N2CCN(c3ccnc4cc(Cl)ccc34)CC2)cc1', -22.7),
  ('S=C(NCCCc1ccccc1)Nc1ccccc1Cl', 2.38),
  ('O=C(c1ccc(Cn2cc(Br)cn2)cc1)N1CCN(c2ccccc2)CC1', -57.4);
